assay: physchem; details: buffer, pH 7.5
measured-parameter: half-life (min)
The response must be a number in min with no trailing unit.

1. NC(=O)SCC(=O)Nc1ccc(Cl)cc1 = 26.8

Here is the next item to consider.
Item NC(=O)SCC(=O)Nc1ccccc1Cl has what recorded half-life?
20.6

###

Data export: Kd values recorded with ColH-PD (Hathewaya histolytica, UniProt Q46085).
Sequence (Q46085 331-721 limits assumed): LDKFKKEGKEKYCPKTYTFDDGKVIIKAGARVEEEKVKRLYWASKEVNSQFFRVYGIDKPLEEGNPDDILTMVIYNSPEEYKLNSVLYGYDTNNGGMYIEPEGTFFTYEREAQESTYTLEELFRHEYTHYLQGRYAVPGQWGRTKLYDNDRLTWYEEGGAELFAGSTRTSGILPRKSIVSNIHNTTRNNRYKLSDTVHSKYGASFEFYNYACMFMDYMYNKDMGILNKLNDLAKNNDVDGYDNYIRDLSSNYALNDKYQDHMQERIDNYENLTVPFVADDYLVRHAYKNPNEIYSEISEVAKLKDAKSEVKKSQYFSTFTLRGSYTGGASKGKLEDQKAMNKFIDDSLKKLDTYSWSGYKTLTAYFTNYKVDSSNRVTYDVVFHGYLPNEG
The response must be a number in nM with no trailing unit.

1) O=C(CS)Nc1ccc(Cl)cc1 = 360

Item NC(=O)SCC(=O)Nc1ccc(Cl)cc1 has what recorded Kd?
309

###

Data export: IC50 values recorded with ColH-PD (Hathewaya histolytica).
The response must be a number in µM with no trailing unit.

Item O=C(CS)Nc1ccc(Cl)cc1 [Compound 14] has what recorded IC50?
0.21

###

Data export: IC50 values recorded with ColH-PD (Hathewaya histolytica).

1. COC(=O)c1ccc(NC(=O)CSC(N)=O)cc1 [Compound 4] = 0.044 µM

Item Cc1ccc(NC(=O)CSC(N)=O)cc1 [Compound 6] has what recorded IC50?
0.12 µM

What do we get for O=C(CS)Nc1ccccc1Cl [Compound 15] ?
40 µM

What do we get for NC(=O)SCC(=O)Nc1cccc(F)c1 [Compound 10] ?
23 µM

What do we get for NC(=O)SCC(=O)Nc1ccccc1Cl [Compound 12] ?
31 µM

What do we get for CCOc1ccc(NC(=O)CSC(N)=O)cc1 [Compound 8] ?
0.19 µM

###

target: ColH-PD (Hathewaya histolytica, UniProt Q46085)
Item-by-item account of IC50
The response must be a number in nM with no trailing unit.

Known IC50 results, listed for orientation:
1. Cc1ccc(NC(=O)CSC(N)=O)cc1C = 1900
2. NC(=O)SCC(=O)Nc1ccc(Cl)cc1 = 190
3. COc1ccc(NC(=O)CSC(N)=O)cc1 = 71
4. NC(=O)SCC(=O)Nc1ccccc1 = 25000

Here is the next item to consider.
Item NC(=O)SCC(=O)Nc1cccc(Cl)c1 with ColH-PD (Hathewaya histolytica, UniProt Q46085) - IC50?
19000
